Data provenance: BindingDB's records for PubMed 11408610

Assay system Cannabinoid receptor 1 (Rattus norvegicus, UniProt P20272); read-out recorded as Ki.

Use the examples below as a reference point.
Cn1ccc(C(=O)c2cccc3ccccc23)c1	> 10 µM
CCn1ccc(C(=O)c2cccc3ccccc23)c1	> 10 µM

Note: attention shifts to another entry.
Fill in the recorded Ki for this compound, with Cannabinoid receptor 1 (Rattus norvegicus, UniProt P20272) as test system: `CCCn1ccc(C(=O)c2cccc3ccccc23)c1`
Sequence (P20272 whole entry): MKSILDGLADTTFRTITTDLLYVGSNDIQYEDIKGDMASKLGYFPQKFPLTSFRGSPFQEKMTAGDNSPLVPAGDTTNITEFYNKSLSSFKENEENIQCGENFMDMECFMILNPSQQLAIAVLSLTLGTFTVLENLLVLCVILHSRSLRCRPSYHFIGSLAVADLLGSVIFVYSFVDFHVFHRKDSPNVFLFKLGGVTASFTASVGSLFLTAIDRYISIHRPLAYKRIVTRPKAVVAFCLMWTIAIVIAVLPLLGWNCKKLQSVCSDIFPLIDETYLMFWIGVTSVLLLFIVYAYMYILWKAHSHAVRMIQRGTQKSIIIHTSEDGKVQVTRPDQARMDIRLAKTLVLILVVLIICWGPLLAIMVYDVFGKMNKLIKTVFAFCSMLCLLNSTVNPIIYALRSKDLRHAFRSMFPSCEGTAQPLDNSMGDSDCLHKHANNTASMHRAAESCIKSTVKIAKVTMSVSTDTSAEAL
> 10 µM
